>  <SMILES_REPR>
O=[N+]([O-])c1cc(C(F)(F)F)ccc1N1CCc2ccccc21

>  <melting point>
89 to 92 °C

$$$$
>  <SMILES_REPR>
COc1cc(OCC(=O)O)c(C)cc1SCc1ccc(-c2ccc(C(F)(F)F)cc2)cc1

>  <melting point>
170 to 171 °C

$$$$
>  <SMILES_REPR>
N#Cc1ccc(NC(=O)c2cccc(OCc3ccc(F)c(F)c3)c2)cc1

>  <melting point>
173 to 174 °C

$$$$
>  <SMILES_REPR>
COc1cccc(OCc2cccc(OCc3ccc4ccccc4n3)c2)c1C(=O)O

>  <melting point>
149 to 152 °C

$$$$
>  <SMILES_REPR>
Nc1ccc(Cc2ccc(CS(=O)(=O)NCc3ccccc3)cc2)cc1

>  <melting point>
115 to 118 °C

$$$$

* * *

melting point values by entry

>  <COMPOUND>
COc1ccc2c(c1)C(c1ccncc1)=Nc1cc(Cl)ccc1O2

>  <melting point>
158 to 160 °C

$$$$
>  <COMPOUND>
COC1=C(OC)C(=O)C2=C(CC(CCCCCCCCO)C2)C1=O

>  <melting point>
56 to 58 °C

$$$$
>  <COMPOUND>
CN(C)c1ccc(NC(=O)NC2CCC2)c(C(=O)NCC2CCN(C(c3ccccc3)c3ccccc3)CC2)c1

>  <melting point>
210 to 212 °C

$$$$
>  <COMPOUND>
O=C(O)CN1C(=O)C(=C2CCCCC2)SC1=S

>  <melting point>
196 to 201 °C

$$$$
>  <COMPOUND>
COC(=O)CC(=O)NC(C)(C)CC(C)(C)C

>  <melting point>
74 to 75 °C

$$$$
>  <COMPOUND>
C=CCSc1nnc(Cl)c(C)c1C

>  <melting point>
51 to 53 °C

$$$$
>  <COMPOUND>
O=C(O)C(=O)CC(=O)c1cccn1Cc1cc(F)c(F)cc1F

>  <melting point>
154 to 156 °C

$$$$
>  <COMPOUND>
COC(=O)C1=C[C@@H](OC(C)C)[C@H](NC(C)=O)[C@@H](CCO)C1

>  <melting point>
118 to 119 °C

$$$$
>  <COMPOUND>
COC(=O)CCc1ccc(C#CC2(O)CN3CCC2CC3)c(CO)c1 (stereo not drawn)

>  <melting point>
35.8 °C

$$$$
>  <COMPOUND>
O=C(NCCCCCn1ccnc1)c1ccc(Cl)s1

>  <melting point>
123 to 125 °C

$$$$
>  <COMPOUND>
COc1cc(OCc2cccc([N+](=O)[O-])c2)ccc1C(C)=O

>  <melting point>
111 to 114 °C

$$$$
>  <COMPOUND>
N#CC(=C(O)c1ccncc1)c1ccc(F)cc1

>  <melting point>
225 °C

$$$$
>  <COMPOUND>
CC1=Nc2c(C)nn(C)c2C2=NCCN12

>  <melting point>
174 to 177 °C

$$$$
>  <COMPOUND>
CN(C=O)CNC(=O)c1cc(Cl)nc(Cl)c1

>  <melting point>
150 to 155 °C

$$$$
>  <COMPOUND>
COc1ccc(CCc2c(Cc3ccccc3)sc3ccccc23)cc1

>  <melting point>
68 to 70 °C

$$$$
>  <COMPOUND>
Clc1nc2ccccc2c2c1ncn2Cc1ccncc1

>  <melting point>
> 300 °C

$$$$
>  <COMPOUND>
CCC1(O)CC2CC[C@]1(CS(=O)(=O)N1CCC3(C=Cc4ccccc43)CC1)C2(C)C (stereo partly drawn)

>  <melting point>
171 to 173 °C

$$$$
>  <COMPOUND>
CN(C)c1cccc(NC(=S)NN=Cc2ccc(-c3ncn(-c4ccc(OC(F)(F)F)cc4)n3)cc2)c1

>  <melting point>
192 to 194 °C

$$$$
>  <COMPOUND>
Cc1nc2c(C#N)cnn2c(Cl)c1CCCl

>  <melting point>
143 to 145 °C

$$$$
>  <COMPOUND>
CCOC(=O)[C@H](Cc1ccc(O)cc1)NC(=O)C1(NC(=O)[C@@H](SC(=O)C2CCCC2)C(C)C)CCCC1

>  <melting point>
130 to 131 °C

$$$$
>  <COMPOUND>
Nc1ccc(NNC(=O)c2ccccc2)cc1

>  <melting point>
134 to 136 °C

$$$$
>  <COMPOUND>
O=S(=O)(CCCCCl)c1ccccc1

>  <melting point>
55 to 58 °C

$$$$
>  <COMPOUND>
CCCc1c(OCCCOc2ccc(-c3nnn[nH]3)cc2Cl)ccc(C(C)=O)c1O

>  <melting point>
214 to 216 °C

$$$$
>  <COMPOUND>
CN1Cc2c(C#CC(C)(C)OC(=O)C(C)(C)C)ncn2-c2cccc(Cl)c2C1=O

>  <melting point>
132 to 133 °C

$$$$
>  <COMPOUND>
C=CCN(C(C)=O)c1cccc(-c2ccc3nncn3n2)c1

>  <melting point>
139 to 142 °C

$$$$
>  <COMPOUND>
CC(=O)Nc1ccc2c(c1)c(-c1cc3cccnc3[nH]1)cn2C

>  <melting point>
220 to 221 °C

$$$$
>  <COMPOUND>
CC(=O)c1ccc(OCc2ccccc2)c2ncccc12

>  <melting point>
131 to 133 °C

$$$$
>  <COMPOUND>
O=C(O)C(O)c1cccnc1 (stereo not drawn)

>  <melting point>
140 °C

$$$$
>  <COMPOUND>
COc1ccc(C=O)c2cc(C#N)oc12

>  <melting point>
170 to 178 °C

$$$$
>  <COMPOUND>
CCOC(=O)c1ccc(C(Cc2ccc(F)cc2)C(=O)Nc2nc3ccccc3o2)cc1 (stereo not drawn)

>  <melting point>
122 to 125 °C

$$$$
>  <COMPOUND>
CCOC(=O)NC(=S)CNc1ccc(C(=O)OC)c(S(=O)(=O)NC(C)(C)C)c1

>  <melting point>
110 °C

$$$$
>  <COMPOUND>
COC(=O)C(=Cc1ccc(OCc2ccccc2)cc1)C(=O)OC

>  <melting point>
134 to 135 °C

$$$$
>  <COMPOUND>
CC(C)(C)C(=O)C=Cc1cccnc1

>  <melting point>
68 to 70 °C

$$$$
>  <COMPOUND>
COc1cn(-c2ccc(C#CC3CC3)cc2F)nc(-c2ccnn2-c2ccccc2)c1=O

>  <melting point>
145 to 146 °C

$$$$
>  <COMPOUND>
CCc1ccc2oc(=O)c(NC(=O)Nc3ccc(F)cc3F)c(-c3ccccc3C)c2c1

>  <melting point>
210 to 211 °C

$$$$
>  <COMPOUND>
C=C1CN(c2ccccc2)C1=O

>  <melting point>
57 to 58 °C

$$$$
>  <COMPOUND>
NC(=S)c1ccccc1-c1ccccc1

>  <melting point>
213 °C

$$$$
>  <COMPOUND>
CCCC(C)(C(=O)N(C)C)n1cc(C)c(-c2ccccc2)n1 (stereo not drawn)

>  <melting point>
90 to 92 °C

$$$$
>  <COMPOUND>
CC1(C)C=C(C(=NC2CC2)NC#N)c2cc([N+](=O)[O-])ccc2O1

>  <melting point>
206 to 207 °C

$$$$
>  <COMPOUND>
C[C@H](NN1C(=O)c2ccccc2S1(=O)=O)C(=O)N[C@@H](Cc1ccccc1)C(=O)O

>  <melting point>
190 to 193 °C

$$$$
>  <COMPOUND>
C#CCOc1cc(NC(=O)C2NCC3CC32)c(F)cc1Cl (stereo not drawn)

>  <melting point>
113 to 115 °C

$$$$
>  <COMPOUND>
CN1CC(=O)C(C#N)=C1N

>  <melting point>
300 °C

$$$$
>  <COMPOUND>
O=C(c1ccc2c(c1)OCC(c1ccccc1)=N2)N1CCOCC1

>  <melting point>
175 to 177 °C

$$$$
